assay: inhibition of 3D7 malaria parasite growth – strain 3D7 (AID 2306);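 further: 0% = DMSO wells and 100% = chloroquine plus artemisinin control wells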; details: P. falciparum 3D7 erythrocytic growth, LDH absorbance, 72 h; at 2 µM; stronger effect = higher value
measuredEndpoint: growth inhibition (%)
The figure you give is taken to be in %; do not add the unit.

Examples with their reported growth inhibition follow.
- compound: "COc1ccc(-c2cccc(NC(=O)c3ccccc3)c2)cc1CN1CCCN(C)CC1"
  growth inhibition / %: 98
- compound: "c1ccc2cc(CNCCCN3CCN(CCCNCc4ccc5ccccc5c4)CC3)ccc2c1"
  growth inhibition / %: 100
- compound: "O=C(NC1CCN(CCN2CCC(c3c[nH]c4ccccc34)CC2)CC1)c1ccc(-c2ccc(C(F)(F)F)cc2)cc1"
  growth inhibition / %: 99
- compound: "COc1ccccc1CNC(=O)c1nn(-c2ccc(Cl)cc2)c(=O)c2ccccc12"
  growth inhibition / %: 101
- compound: "CC(CCCCOCCc1ccccc1)NCC(O)c1cc(Cl)c(N)c(Cl)c1 (centres undefined)"
  growth inhibition / %: 96
- compound: "O=C(COc1ccccc1Cl)N1CCc2cc3nccc(N4CCN5CCC[C@H]5C4)c3cc21"
  growth inhibition / %: 91
- compound: "O=C(Nc1ccc(Cl)c(Cl)c1)N(Cc1ccccc1Br)C1CCNCC1"
  growth inhibition / %: 96
- compound: "COc1ccc(-c2nc(-c3ccc([N+](=O)[O-])cc3)no2)cc1OC"
  growth inhibition / %: 96

API: the following record is the query input.
Entry COc1ccc2ncc(C#N)c(CCN3[C@@H]4CC[C@H]3CC(NCc3ccc5c(n3)NC(=O)CS5)C4)c2c1 (some centres undefined) , growth inhibition reported as 95
